test system: Escherichia coli TOP10; assay: shrunken log2 fold change of peptide-encoding DNA abundance (4.5 h post-induction vs induction); higher = less antimicrobial activity (less host growth inhibition); settings: time post-induction: 4.5 h; library: site-saturation at positions 5, 18, 19, 20
outcomeMeasure: shrunken log2 fold change
API doc: respond with a numeric literal and nothing else, no unit.

For orientation, consider the following solved cases.
RRIRWRPPRLPRPRPRPQPQPRP    0.417
RRIRYRPPRLPRPRPRPMSNPRP    -0.709
RRIRNRPPRLPRPRPRPTCRPRP    0.142
RRIRTRPPRLPRPRPRPVGHPRP    -0.00107
RRIRLRPPRLPRPRPRPKCGPRP    0.338

Now turn to the next sequence.
**Query** Any idea what shrunken log2 fold change was measured for RRIRNRPPRLPRPRPRPSRYPRP ?
**Result** -0.000156

----------
test system: Escherichia coli TOP10; assay: shrunken log2 fold change of peptide-encoding DNA abundance (4.5 h post-induction vs induction); higher = less antimicrobial activity (less host growth inhibition); settings: time post-induction: 4.5 h; library: site-saturation at positions 5, 18, 19, 20
The class of a record is decided solely by its measured shrunken log2 fold change; consult low band = under -0.1, middle band = from -0.1 up to 0.05, high band = 0.05 and over

RRIRMRPPRLPRPRPRPPQVPRP    high band

**Query** Place this sequence in its band: RRIRMRPPRLPRPRPRPDNVPRP
**Result** middle band

**Query** Same for RRIRHRPPRLPRPRPRPVFFPRP
**Result** middle band

**Query** Same for RRIRCRPPRLPRPRPRPKQMPRP
**Result** high band

**Query** Same for RRIRVRPPRLPRPRPRPIYAPRP
**Result** middle band

**Query** Same for RRIRARPPRLPRPRPRPRGCPRP
**Result** high band

----------
tested on: Escherichia coli TOP10; assay: shrunken log2 fold change of peptide-encoding DNA abundance (4.5 h post-induction vs induction); higher = less antimicrobial activity (less host growth inhibition); conditions: time post-induction: 4.5 h; library: site-saturation at positions 5, 18, 19, 20
outcomeMeasure: shrunken log2 fold change
API doc: respond with a numeric literal and nothing else, no unit.

For orientation, consider the following solved cases.
RRIRTRPPRLPRPRPRPKNAPRP    0.0264
RRIRVRPPRLPRPRPRPSRCPRP    -0.101
RRIRNRPPRLPRPRPRPSWLPRP    -0.361
RRIRIRPPRLPRPRPRPAHQPRP    -0.0564
RRIRTRPPRLPRPRPRPAGWPRP    0.517
RRIRSRPPRLPRPRPRPYTAPRP    -0.752
RRIRRRPPRLPRPRPRPGPQPRP    0.337
RRIRHRPPRLPRPRPRPWAPPRP    -0.251
RRIRHRPPRLPRPRPRPEKYPRP    -0.159
RRIRRRPPRLPRPRPRPKLIPRP    -0.395

**Query** Any idea what shrunken log2 fold change was measured for RRIRCRPPRLPRPRPRPGRFPRP ?
**Result** 0.0435

**Query** Same for RRIRSRPPRLPRPRPRPNGVPRP
**Result** -0.00885

**Query** Same for RRIRLRPPRLPRPRPRPAHCPRP
**Result** 0.0914

**Query** Same for RRIRYRPPRLPRPRPRPWFRPRP
**Result** -0.567

**Query** Same for RRIRQRPPRLPRPRPRPWNQPRP
**Result** -0.0236

----------
tested on: Escherichia coli TOP10; assay: shrunken log2 fold change of peptide-encoding DNA abundance (4.5 h post-induction vs induction); higher = less antimicrobial activity (less host growth inhibition); conditions: time post-induction: 4.5 h; library: site-saturation at positions 5, 18, 19, 20
Each entry gets F if its shrunken log2 fold change stays under -0.05, and T if its shrunken log2 fold change is -0.05 or above.

Examples with answers:
RRIRFRPPRLPRPRPRPFYLPRP    F
RRIRMRPPRLPRPRPRPDGIPRP    T
RRIRWRPPRLPRPRPRPHHGPRP    F

**Query** Please tell me: is the sequence RRIRIRPPRLPRPRPRPWNIPRP at or over -0.05 in terms of shrunken log2 fold change?
**Result** T

**Query** Same for RRIRARPPRLPRPRPRPWNMPRP
**Result** T

**Query** Same for RRIRNRPPRLPRPRPRPICLPRP
**Result** T

**Query** Same for RRIRKRPPRLPRPRPRPEMEPRP
**Result** T

**Query** Same for RRIRYRPPRLPRPRPRPHRFPRP
**Result** T

----------
tested on: Escherichia coli TOP10; test: shrunken log2 fold change of peptide-encoding DNA abundance (4.5 h post-induction vs induction); higher = less antimicrobial activity (less host growth inhibition); settings: time post-induction: 4.5 h; library: site-saturation at positions 5, 18, 19, 20
The class of a record is decided solely by its measured shrunken log2 fold change; consult I (below -0.06), II (-0.06 to below 0.1), III (0.1 or more)

RRIRGRPPRLPRPRPRPDKSPRP    III
RRIRERPPRLPRPRPRPRSQPRP    I
RRIRTRPPRLPRPRPRPCLCPRP    I

**Query** Place this sequence in its band: RRIRGRPPRLPRPRPRPMPTPRP
**Result** III

**Query** Same for RRIRVRPPRLPRPRPRPASFPRP
**Result** III

**Query** Same for RRIRSRPPRLPRPRPRPNFDPRP
**Result** III

**Query** Same for RRIRARPPRLPRPRPRPECQPRP
**Result** III

**Query** Same for RRIRQRPPRLPRPRPRPACQPRP
**Result** III

**Query** Same for RRIRERPPRLPRPRPRPLWMPRP
**Result** II

**Query** Same for RRIRMRPPRLPRPRPRPPTYPRP
**Result** III

**Query** Same for RRIRNRPPRLPRPRPRPIHTPRP
**Result** II

**Query** Same for RRIRRRPPRLPRPRPRPFLEPRP
**Result** II

**Query** Same for RRIRCRPPRLPRPRPRPWILPRP
**Result** I

----------
system: Escherichia coli TOP10; assay: shrunken log2 fold change of peptide-encoding DNA abundance (4.5 h post-induction vs induction); higher = less antimicrobial activity (less host growth inhibition); conditions: time post-induction: 4.5 h; library: site-saturation at positions 5, 18, 19, 20
The class of a record is decided solely by its measured shrunken log2 fold change; consult LOW = under -0.07, MID = from -0.07 up to 0.1, HIGH = 0.1 and over

RRIRARPPRLPRPRPRPYWFPRP    LOW

**Query** Place this sequence in its band: RRIRWRPPRLPRPRPRPMQFPRP
**Result** HIGH

**Query** Same for RRIRLRPPRLPRPRPRPCEGPRP
**Result** LOW

**Query** Same for RRIRARPPRLPRPRPRPQELPRP
**Result** MID

**Query** Same for RRIRRRPPRLPRPRPRPQDSPRP
**Result** MID

**Query** Same for RRIRCRPPRLPRPRPRPKAEPRP
**Result** HIGH

**Query** Same for RRIRLRPPRLPRPRPRPNDEPRP
**Result** MID

----------
test system: Escherichia coli TOP10; assay: shrunken log2 fold change of peptide-encoding DNA abundance (4.5 h post-induction vs induction); higher = less antimicrobial activity (less host growth inhibition); conditions: time post-induction: 4.5 h; library: site-saturation at positions 5, 18, 19, 20
outcomeMeasure: shrunken log2 fold change
API doc: respond with a numeric literal and nothing else, no unit.

For orientation, consider the following solved cases.
RRIRARPPRLPRPRPRPDVWPRP    0.342
RRIRQRPPRLPRPRPRPRLDPRP    0.205
RRIRIRPPRLPRPRPRPTAQPRP    0.154
RRIRHRPPRLPRPRPRPRYYPRP    -0.332

**Query** Any idea what shrunken log2 fold change was measured for RRIRARPPRLPRPRPRPVIDPRP ?
**Result** -0.066

**Query** Same for RRIRYRPPRLPRPRPRPGQWPRP
**Result** 0.136

**Query** Same for RRIRKRPPRLPRPRPRPQADPRP
**Result** 0.0626

**Query** Same for RRIRQRPPRLPRPRPRPHPNPRP
**Result** -0.389

----------
tested on: Escherichia coli TOP10; experiment: shrunken log2 fold change of peptide-encoding DNA abundance (4.5 h post-induction vs induction); higher = less antimicrobial activity (less host growth inhibition); conditions: time post-induction: 4.5 h; library: site-saturation at positions 5, 18, 19, 20;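 note: peptides expressed intracellularly from a pBAD plasmid library in pooled LB shake-flask culture, induced with 0.3% L-arabinose, DNA abundance read by NGS, three biological replicates, DESeq2 with apeglm shrinkage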
outcomeMeasure: shrunken log2 fold change
API doc: respond with a numeric literal and nothing else, no unit.

For orientation, consider the following solved cases.
RRIRCRPPRLPRPRPRPTTEPRP    0.419
RRIRCRPPRLPRPRPRPTYIPRP    -0.959
RRIRSRPPRLPRPRPRPNEIPRP    -0.12

**Query** Any idea what shrunken log2 fold change was measured for RRIRSRPPRLPRPRPRPEMWPRP ?
**Result** 0.67
